Biological target: HLA-A*31:01
Test: IEDB peptide-MHC binding, purified MHC/competitive/fluorescence; filed as Kd, often an IC50 or EC50 that approximates it; bounds were set here for any values at or beyond the usual limits of such assays
Conditions: source organism: Escherichia coli E22
measured endpoint: pKd
// scale note: pKd = -log10(conc_M); give the bare number

Quick note, pKd for "EMFIIKYFK" landed at 6.40

----------
Biological target: HLA-A*26:01
Assay: IEDB peptide-MHC binding, purified MHC/direct/fluorescence; filed as Kd, often an IC50 or EC50 that approximates it; bounds were set here for any values at or beyond the usual limits of such assays
Conditions: source organism: Bacillus anthracis str. A0389
measured endpoint: Kd

Quick note, Kd for "KLYVNGKAY" landed at ≥ 20 µM

----------
Biological target: HLA-A*11:01
Assay: IEDB peptide-MHC binding, purified MHC/competitive/fluorescence; filed as Kd, often an IC50 or EC50 that approximates it; bounds were set here for any values at or beyond the usual limits of such assays
Conditions: source organism: Brucella abortus S19
measured endpoint: Kd (nM)
Kindly answer with a numeric value in nM, unit omitted.

Quick note, Kd for "RMIESRMSK" landed at 5.5

----------
Molecular target: HLA-A*26:02
Assay: IEDB peptide-MHC binding, purified MHC/direct/fluorescence; filed as Kd, often an IC50 or EC50 that approximates it; bounds were set here for any values at or beyond the usual limits of such assays
Conditions: source organism: Influenza A virus(A/swine/Shandong/fZC/2003(H9N2))
measured endpoint: Kd
Remember to follow the number with its unit.

I looked up "TTAKAMEQM" and its Kd for HLA-A*26:02 was 2 nM

----------
Target: HLA-A*29:02
Test: IEDB peptide-MHC binding, purified MHC/competitive/radioactivity; filed as Kd, often an IC50 or EC50 that approximates it; bounds were set here for any values at or beyond the usual limits of such assays
Details: source organism: Mammarenavirus whitewaterense
measured endpoint: Kd

Quick note, Kd for "PYIASRSQI" landed at ≥ 78.9 µM

----------
Target: HLA-B*08:01
Assay: IEDB peptide-MHC binding, purified MHC/competitive/fluorescence; filed as Kd, often an IC50 or EC50 that approximates it; bounds were set here for any values at or beyond the usual limits of such assays
Settings: source organism: Mycobacterium tuberculosis variant bovis BCG str. Pasteur 1173P2
measured endpoint: Kd

I looked up "RPPMVTSGL" and its Kd for HLA-B*08:01 was ≥ 20 µM

----------
Target: HLA-A*02:12
Test: IEDB peptide-MHC binding, purified MHC/direct/fluorescence; filed as Kd, often an IC50 or EC50 that approximates it; bounds were set here for any values at or beyond the usual limits of such assays
Conditions: source organism: Limestone Canyon virus
pKd: −log10 of the molar value.
measured endpoint: pKd

Quick note, pKd for "IRKPKHLYV" landed at ≤ 4.70

----------
Quick list: pKd per entry.
Molecular target: HLA-A*33:01
Assay: IEDB peptide-MHC binding, purified MHC/competitive/radioactivity; filed as Kd, often an IC50 or EC50 that approximates it; bounds were set here for any values at or beyond the usual limits of such assays
Details: source organism: Dengue virus 4 Philippines/H241/1956
// scale note: pKd = -log10(conc_M); give the bare number

input sequence: TAKEVALLR
pKd: 7.76

input sequence: MTIIGRRLQR
pKd: 7.49

Below: the item to evaluate.
Quick note, pKd for "TTILTPMLR" landed at 7.44
